# targetSystem: ScBzz1-D1
# methodNotes: SPOT peptide array binding signal intensity (averaged, normalized) (arbitrary units (background-subtracted, floor 0; scale differs between SH3 domains)); higher = stronger binding of the SH3 domain to the peptide
Rule: SPOT peptide array binding signal intensity of 10 or more gives Yes; anything lower gives No.

Given QQEQNTPPLPPKPKS , state whether its SPOT peptide array binding signal intensity is at least 10.
No

For this binder, is measured SPOT peptide array binding signal intensity 10 or higher? RRARRQMGIPTISQV
Yes

Is it the case that LASNSPPVYPKRIRH has SPOT peptide array binding signal intensity reaching or exceeding 10?
No

Confirm if SPOT peptide array binding signal intensity reported for the binder DFTLPPPPPPPGLDE is 10 or above.
No

Given YRRKSIPFAPHQITA , state whether its SPOT peptide array binding signal intensity is at least 10.
Yes

Confirm if SPOT peptide array binding signal intensity reported for the binder NVLRKILEIPLHSFS is 10 or above.
Yes

Check the entry TSIEIPKRSPLRFTS : does SPOT peptide array binding signal intensity equal or exceed 10?
No

Please tell me: is the binder HKVLRPFLLRRLKKD at or over 10 in terms of SPOT peptide array binding signal intensity?
Yes

Hello, I need to know if RLSRLLLSLPPESFT has measured SPOT peptide array binding signal intensity not below 10. Thanks!
Yes

State whether the measured SPOT peptide array binding signal intensity reaches 10, counting equality as reaching it, for VPKEPAPAPPPEPDM
No

Check the entry GRSRLFPHSPLGRSS : does SPOT peptide array binding signal intensity equal or exceed 10?
No

Does SPOT peptide array binding signal intensity meet or surpass 10 for PSRRDSLSIPRAVDA ?
Yes

hey, is SPOT peptide array binding signal intensity for this one >= 10? VQPTAAPATPPRHIS
No

Reported SPOT peptide array binding signal intensity reaches at least 10 for TTNRGPPPLPPRANV ?
Yes

Threshold query (SPOT peptide array binding signal intensity >= 10) on HVRRSILALPLGVLL
Yes

Taken from the supplement of paper PMC4466140.
